molecular target: M4 muscarinic receptor (Homo sapiens, UniProt P08173); construct: expressed in transfected cells; host or cells: CHO (M4-CHO); assay: Functional mobilization of intracellular calcium (FLIPR) in M4-CHO cells; type: cell-based; conditions: M4 receptor, calcium mobilization; read-out: M4 Efficacy
Sequence (P08173 whole entry): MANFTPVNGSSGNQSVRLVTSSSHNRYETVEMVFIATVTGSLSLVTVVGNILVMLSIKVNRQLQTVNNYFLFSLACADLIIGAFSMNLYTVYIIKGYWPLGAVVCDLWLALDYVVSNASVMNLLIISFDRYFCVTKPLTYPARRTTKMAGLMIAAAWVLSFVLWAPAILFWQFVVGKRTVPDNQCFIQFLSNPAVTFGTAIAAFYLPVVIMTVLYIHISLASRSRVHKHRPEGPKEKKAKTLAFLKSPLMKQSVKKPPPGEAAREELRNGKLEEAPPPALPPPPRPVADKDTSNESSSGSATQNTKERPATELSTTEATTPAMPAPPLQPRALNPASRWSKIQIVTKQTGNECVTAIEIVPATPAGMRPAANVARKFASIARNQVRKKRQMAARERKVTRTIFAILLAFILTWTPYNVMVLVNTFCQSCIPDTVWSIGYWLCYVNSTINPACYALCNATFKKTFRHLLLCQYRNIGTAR
Recorded endpoint: Emax

For record Cc1ccc2c(c1)C1(CCN(C3CC4CCC3C4)CC1)CN2C(=O)c1ccno1 (stereo not drawn) the listed Emax is 65 to 85%

For record CCOC(=O)N1CCC(N2CCC3(CC2)CN(C(=O)c2ccncc2)c2ccc(F)cc23)CC1 the listed Emax is < 65%

For record COCCOC(=O)N1C2CCC1CC(N1CCC3(CC1)CN(C(=O)O[C@@H]1CCOC1)c1ccc(F)cc13)C2 (stereo partly drawn) the listed Emax is > 85%

For record CCOC(=O)N1CCC(N2CCC3(CC2)CN(C(=O)OCCOC)c2ccc(F)cc23)CC1 the listed Emax is > 85%

For record Clc1ccc2c(c1)C1(CCN(CC3CC4C=CC3C4)CC1)CN2 (stereo not drawn) the listed Emax is > 85%

For record CC(=O)N1CC2(CCN(CC3CCN(C(=O)OC(C)C)CC3)CC2)c2cc(F)ccc21 the listed Emax is < 65%

For record CC(=O)N1CC2(CCN(CC3CCCC3)CC2)c2cc(F)ccc21 the listed Emax is 65 to 85%

For record CCOC(=O)N1CCC(N2CCC3(CC2)CN(C(=O)N2CCOCC2)c2ccc(F)cc23)CC1 the listed Emax is < 65%

For record O=C(C1CCC1)N1CC2(CCN(C3CC4CCC(C3)N4C(=O)O[C@@H]3CCOC3)CC2)c2cc(F)ccc21 (stereo partly drawn) the listed Emax is < 65%

For record CCOC(=O)N1CCCC(N2CCC3(CC2)CN(C(C)=O)c2ccc(F)cc23)CC1 (stereo not drawn) the listed Emax is < 65%

For record CC(=O)NC1CC2(CCN(C3CCCCC3)CC2)c2ccccc21 (stereo not drawn) the listed Emax is < 65%

For record O=C1Nc2ccccc2C12CCN(C1CC3CCC1C3)CC2 (stereo not drawn) the listed Emax is < 65%

Values compiled from patent US7786141B2.
